Conditions: 25 °C
EXPERIMENTAL_READOUT: log10 solubility (log10 of the value in µM)
// do not treat as linear: log10 of solubility, unit µM

Known log10 solubility results, listed for orientation:
# COMPOUND, EXPERIMENTAL_READOUT, EXPERIMENTAL_VALUE
measured = [
    ("ClC1=C(Cl)C(Cl)(Cl)C(Cl)=C1Cl", "log10 solubility", 0.82),
    ("O=C(O)c1ccc(C(=O)O)c(C(=O)O)c1", "log10 solubility", 5.00),
    ("Clc1ccccc1-c1ccccc1", "log10 solubility", 1.41),
    ("O=P(Oc1ccccc1)(Oc1ccccc1)Oc1ccccc1", "log10 solubility", 0.76),
    ("COc1cc(Cl)ccc1O", "log10 solubility", 4.50),
    ("Oc1cc(Cl)cc(Cl)c1", "log10 solubility", 4.44),
]

Moving on to the next compound.
Specify log10 solubility for Clc1ccc(C(c2ccccc2Cl)C(Cl)Cl)cc1 (configuration not stated) and stop.
-0.51
